Data credit: patent US20260199294A1

- Test system: mitochondrial DNA (mtDNA) prepared from MM.1S cells
- assay: Direct DNA damage, PCR amplification with mtDNA primers
- Assay type: biochemical, human
- assay.setup: 0.25 μM compound, 30 minutes at 37° C.
measured.property: DNA damage on mitochondrial DNA (8.9 kb PCR band)

molecular.string | result
Cl.Cl.Cn1c(CC[C@H](N)C(=O)O)nc2cc(N(CCCl)CCCl)ccc21 | effectively damaged
CCOC(=O)[C@@H](N)CCc1nc2cc(N(CCCl)CCCl)ccc2n1C.Cl.Cl | effectively damaged

----------
- Tested on: nuclear DNA (HPRT) prepared from MM.1S cells
- assay: Direct DNA damage, PCR amplification with HPRT primers
- Assay type: biochemical, human
- assay.setup: 0.25 μM compound, 30 minutes at 37° C.
measured.property: DNA damage on nuclear DNA (HPRT 10.4 kb PCR band)

molecular.string | result
CCOC(=O)[C@@H](N)CCc1nc2cc(N(CCCl)CCCl)ccc2n1C.Cl.Cl | effectively damaged
Cl.Cl.Cn1c(CC[C@H](N)C(=O)O)nc2cc(N(CCCl)CCCl)ccc21 | effectively damaged

----------
A collection of compounds and their measured IC50
- Test system: BJ Fibroblasts (normal cells)
- assay: In vitro cytotoxicity (CellTiter-Glo, 72 h) in BJ fibroblasts
- Assay type: cell-based, human

molecular.string | IC50
CCOC(=O)[C@H](Cc1ccc(F)cc1)NC(=O)[C@H](CCc1nc2cc(N(CCCl)CCCl)ccc2n1C)NC(C)=O | > 2000 nM
CC(C)C[C@H](NC(=O)[C@@H](N)CCc1nc2cc(N(CCCl)CCCl)ccc2n1C)C(=O)N(C)C | > 2000 nM
CCOC(=O)[C@H](CC(C)C)NC(=O)[C@@H](N)CCc1nc2cc(N(CCCl)CCCl)ccc2n1-c1ccccc1 | > 2000 nM
CCOC(=O)[C@H](CC(C)C)NC(=O)[C@@H](N)CCc1nc2cc(N(CCCl)CCCl)ccc2n1C | 1070 nM

----------
- System: hPBMC (Human Peripheral blood mononuclear cells)
- assay: In vitro cytotoxicity (CellTiter-Glo, 72 h) in hPBMC
- Format: cell-based
- assay.setup: stimulated with PHA-M and IL-2
measured.property: IC50 (nM)

molecular.string | unit.of.measurement | number
CCOC(=O)[C@H](CC(C)C)NC(=O)[C@@H](N)CCc1nc2cc(N(CCCl)CCCl)ccc2n1C | nM | 5.4
CCOC(=O)[C@H](Cc1nc2cc(N(CCCl)CCCl)ccc2n1C)NC(=O)[C@@H](N)CC(C)C | nM | 26.4
CCOC(=O)[C@H](Cc1ccc(F)cc1)NC(=O)[C@@H](N)CCc1nc2cc(N(CCCl)CCCl)ccc2n1C | nM | 7.5
